Cited source for all entries: patent US9353083B2

Test System: hMC1R (Homo sapiens (Human), UniProt Q01726)
Sequence (Q01726 whole entry): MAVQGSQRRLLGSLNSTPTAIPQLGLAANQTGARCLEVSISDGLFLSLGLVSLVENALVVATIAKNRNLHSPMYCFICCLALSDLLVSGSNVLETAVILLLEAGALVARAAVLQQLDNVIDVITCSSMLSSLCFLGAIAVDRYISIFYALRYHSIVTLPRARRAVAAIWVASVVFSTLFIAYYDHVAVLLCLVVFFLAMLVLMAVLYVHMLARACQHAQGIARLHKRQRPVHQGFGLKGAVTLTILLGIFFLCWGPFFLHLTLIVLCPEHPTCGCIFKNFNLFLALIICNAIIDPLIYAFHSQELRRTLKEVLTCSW
Method Notes: Transactivation test melanocortin receptors (CRE-Luc, HEK293), hMC1R
Test Conditions: HEK293, pCRE-Luc, agonist mode; read-out: EC50 hMC1-R
pEC50: −log10 of the molar value.
Property: pEC50

(a) COc1ccc(C[C@@H](NC(=O)CCc2nc[nH]c2C)C(=O)N2CC(OCC3CC3)(c3ccccc3C)C2)cc1
(b) COc1ccc(C[C@@H](NC(=O)CCc2c[nH]cn2)C(=O)N2CC(OCCCCO)(c3ccccc3C)C2)cc1
Lookup: When the recorded pEC50 values are compared, which is smaller: that of a or that of b ? Give the label under which the chosen entry appears.
Found: b
(b: 6.60, a: 7.15)

* * *

Test System: hERG potassium channel (Homo sapiens (Human), UniProt Q12809)
Sequence (Q12809 whole entry): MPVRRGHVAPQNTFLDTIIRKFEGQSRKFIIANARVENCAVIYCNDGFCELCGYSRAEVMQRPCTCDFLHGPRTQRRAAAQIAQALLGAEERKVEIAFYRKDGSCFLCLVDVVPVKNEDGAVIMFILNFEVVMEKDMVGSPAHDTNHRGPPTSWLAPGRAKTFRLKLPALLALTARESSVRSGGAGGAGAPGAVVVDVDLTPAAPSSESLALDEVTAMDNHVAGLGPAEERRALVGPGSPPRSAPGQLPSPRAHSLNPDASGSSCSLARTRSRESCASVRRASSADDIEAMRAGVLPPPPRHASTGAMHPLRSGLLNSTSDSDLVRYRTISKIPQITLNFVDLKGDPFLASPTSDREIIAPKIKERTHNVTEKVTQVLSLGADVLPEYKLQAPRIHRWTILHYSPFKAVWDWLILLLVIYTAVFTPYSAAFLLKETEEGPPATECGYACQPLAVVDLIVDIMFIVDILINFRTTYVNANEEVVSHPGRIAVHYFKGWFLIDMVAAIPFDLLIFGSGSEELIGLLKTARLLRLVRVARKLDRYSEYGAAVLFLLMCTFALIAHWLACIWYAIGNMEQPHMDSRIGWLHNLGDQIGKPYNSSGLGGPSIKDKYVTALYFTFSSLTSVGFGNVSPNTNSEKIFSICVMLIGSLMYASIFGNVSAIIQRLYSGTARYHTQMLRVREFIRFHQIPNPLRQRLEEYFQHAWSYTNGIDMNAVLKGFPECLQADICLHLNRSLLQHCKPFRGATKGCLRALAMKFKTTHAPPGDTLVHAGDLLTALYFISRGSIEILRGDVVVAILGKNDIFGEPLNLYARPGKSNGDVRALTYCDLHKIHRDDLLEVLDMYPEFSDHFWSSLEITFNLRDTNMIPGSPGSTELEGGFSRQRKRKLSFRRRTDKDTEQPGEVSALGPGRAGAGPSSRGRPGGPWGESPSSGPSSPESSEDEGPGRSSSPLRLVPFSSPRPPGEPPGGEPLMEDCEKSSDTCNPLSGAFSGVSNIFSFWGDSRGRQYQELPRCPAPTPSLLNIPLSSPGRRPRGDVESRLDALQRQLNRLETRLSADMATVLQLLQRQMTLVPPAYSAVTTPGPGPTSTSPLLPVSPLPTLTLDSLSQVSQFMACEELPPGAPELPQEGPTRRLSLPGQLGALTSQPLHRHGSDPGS
Method Notes: hERG channel test: effect on amplitude of IKr in hERG transfected cells
Test Conditions: estimated from 1, 3 and 10 μM; read-out: Estimated IC50 for hERG channel blockade
Property: pIC50
Lab note: report pIC50 as minus log10 of the concentration in molar units, number only.

COc1ccc(C[C@@H](NC(=O)CCc2nc[nH]c2C)C(=O)N2CC(OCC3CCC3)(c3ccccc3C)C2)cc1 = 5.52

Consider the record given below.
Lookup: For the compound `CCCCOC1(c2ccccc2C)CN(C(=O)[C@@H](Cc2ccc(OC)cc2)NC(=O)[C@@H](O)Cc2c[nH]cn2)C1` , report pIC50.
Found: 5.00

* * *

Test System: hMC4R (Homo sapiens (Human), UniProt P32245)
Sequence (P32245 whole entry): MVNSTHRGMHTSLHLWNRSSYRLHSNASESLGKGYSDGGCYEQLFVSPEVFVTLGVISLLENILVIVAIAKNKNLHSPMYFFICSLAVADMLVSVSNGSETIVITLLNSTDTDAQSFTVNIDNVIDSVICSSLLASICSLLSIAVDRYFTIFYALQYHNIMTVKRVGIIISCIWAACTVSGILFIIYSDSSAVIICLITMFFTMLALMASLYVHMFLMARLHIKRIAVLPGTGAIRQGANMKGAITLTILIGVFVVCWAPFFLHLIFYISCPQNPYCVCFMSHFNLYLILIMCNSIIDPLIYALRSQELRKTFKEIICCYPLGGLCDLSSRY
Method Notes: Transactivation test melanocortin receptors (CRE-Luc, HEK293), hMC4R
Test Conditions: HEK293, pCRE-Luc, agonist mode; read-out: EC50 hMC4-R
Property: EC50 (µM)

(1) COc1ccc(C[C@@H](NC(=O)CCc2c[nH]cn2)C(=O)N2CC(OCCCCO)(c3ccccc3C)C2)cc1 [Compound 1]
(2) COc1ccc(C[C@@H](NC(=O)CCc2nc[nH]c2C)C(=O)N2CC(OCC3CC3)(c3ccccc3C)C2)cc1 [Compound 6]
Lookup: Decide: 1 or 2 , by lowest recorded EC50. Please identify the chosen entry by its label.
Found: 2
(2: 4.5 µM, 1: 8 µM)

* * *

Test System: hERG potassium channel (Homo sapiens (Human))
Method Notes: hERG channel test: effect on amplitude of IKr in hERG transfected cells
Type: cell-based
Test Conditions: tested at 1, 3 and 10 μM
Property: concentration from which the decrease of the amplitude of IKr starts (nM)
Your answer should be a plain number; it is taken to be in nM.

COc1ccc(C[C@@H](NC(=O)CCc2nc[nH]c2C)C(=O)N2CC(OCC3CCC3)(c3ccccc3C)C2)cc1 = 1000
CC#CCOC1(c2ccccc2C)CN(C(=O)[C@@H](Cc2ccc(OC)cc2)NC(=O)CCc2nc[nH]c2C)C1 = 3000
CCCCOC1(c2ccccc2C)CN(C(=O)[C@@H](Cc2ccc(OC)cc2)NC(=O)CCNC(=N)N)C1 = 1000

Lookup: Return value of concentration from which the decrease of the amplitude of IKr starts for input `COc1ccc(C[C@@H](NC(=O)CCc2c[nH]cn2)C(=O)N2CC(OCCCC(F)(F)F)(c3ccccc3C)C2)cc1` , no commentary.
Found: 1000

* * *

Documented decrease of the amplitude of IKr across a set of compounds
Test System: UniProtKB Q12809
Method Notes: hERG channel test: effect on amplitude of IKr in hERG transfected cells
Format: cell-based
Test Conditions: with 10 μM
# output: bare number, implied unit %

Lookup: Give the reported value of decrease of the amplitude of IKr for this record: `COc1ccc(C[C@@H](NC(=O)CCc2nc[nH]c2C)C(=O)N2CC(OCC3CCC3)(c3ccccc3C)C2)cc1`
Found: 76.5

Lookup: Given the compound `CC#CCOC1(c2ccccc2C)CN(C(=O)[C@@H](Cc2ccc(OC)cc2)NC(=O)CCc2nc[nH]c2C)C1` , write its reported decrease of the amplitude of IKr.
Found: 42.5

Lookup: Consider the compound `CCCCOC1(c2ccccc2C)CN(C(=O)[C@@H](Cc2ccc(OC)cc2)NC(=O)CCNC(=N)N)C1` and give its recorded decrease of the amplitude of IKr.
Found: 33

Lookup: State, in one line, measured decrease of the amplitude of IKr of `COc1ccc(C[C@@H](NC(=O)CCc2c[nH]cn2)C(=O)N2CC(OCCCC(F)(F)F)(c3ccccc3C)C2)cc1`
Found: 86.5

* * *

Test System: UniProt:Q12809
Method Notes: hERG channel test: effect on amplitude of IKr in hERG transfected cells
Format: cell-based
Test Conditions: 1, 3 and 10 μM
Property: effect observed on the amplitude of IKr (in words)

CC#CCOC1(c2ccccc2C)CN(C(=O)[C@@H](Cc2ccc(OC)cc2)NC(=O)CCc2nc[nH]c2C)C1 = dose effect observed
COc1ccc(C[C@@H](NC(=O)CCc2c[nH]cn2)C(=O)N2CC(OCCCCO)(c3ccccc3C)C2)cc1 = no effect observed
COc1ccc(C[C@@H](NC(=O)CCc2nc[nH]c2C)C(=O)N2CC(OCC3CC3)(c3ccccc3C)C2)cc1 = no effect observed
COc1ccc(C[C@@H](NC(=O)CCc2c[nH]cn2)C(=O)N2CC(OCCCC(F)(F)F)(c3ccccc3C)C2)cc1 = dose effect observed

For the next question, use this molecule.
Lookup: For the molecule `COc1ccc(C[C@@H](NC(=O)CCc2nc[nH]c2C)C(=O)N2CC(OCC3CCC3)(c3ccccc3C)C2)cc1` , give its reported effect observed on the amplitude of IKr (in words).
Found: dose effect observed

* * *

Test System: hERG potassium channel (Homo sapiens (Human), UniProt Q12809)
Method Notes: hERG channel test: effect on amplitude of IKr in hERG transfected cells
Assay type: cell-based
Test Conditions: estimated from 1, 3 and 10 μM; read-out: Estimated IC50 for hERG channel blockade
pIC50: −log10 of the molar value.
Listed next: entries and their corresponding pIC50.

# example entries with known answers
CC#CCOC1(c2ccccc2C)CN(C(=O)[C@@H](Cc2ccc(OC)cc2)NC(=O)CCc2nc[nH]c2C)C1 = < 5.00
COc1ccc(C[C@@H](NC(=O)CCc2c[nH]cn2)C(=O)N2CC(OCCCC(F)(F)F)(c3ccccc3C)C2)cc1 = < 5.52

Lookup: Tell us which pIC50 value is on record for `CCCCOC1(c2ccccc2C)CN(C(=O)[C@@H](Cc2ccc(OC)cc2)NC(=O)CCNC(=N)N)C1`
Found: < 5.00
